- Experimental Details: Pharmacokinetics of VPA from DBS drug levels after intravenous bolus in rats
- Format: in vivo
- Recorded Conditions: both sexes, Sprague-Dawley, rat, dried blood spots (whole blood), all rats (male and female pooled), iv bolus 200 mg/kg, mean ± SD, read-out: Mean residence time (MRT)
Readout Kind: MRT (h)
Hi! Could you send only the number? It should be in h, unit omitted.

MRT for CCCC(CCC)C(=O)O is 1.3

----------
- Experimental Details: Pharmacokinetics of VPA from DBS drug levels after intravenous bolus in rats
- Format: in vivo
- Recorded Conditions: both sexes, Sprague-Dawley, rat, dried blood spots (whole blood), all rats (male and female pooled), iv bolus 200 mg/kg, mean ± SD, read-out: Volume of distribution (Vd)
Readout Kind: Vd (L)
Hi! Could you send only the number? It should be in L, unit omitted.

Vd for CCCC(CCC)C(=O)O is 0.51

----------
- Experimental Details: Pharmacokinetics of VPA from DBS drug levels after intravenous bolus in rats
- Format: in vivo
- Recorded Conditions: Sprague-Dawley, rat, dried blood spots (whole blood), male rats, iv bolus 200 mg/kg, mean ± SD, read-out: HL Lambda Z (terminal elimination half-life) (converted)
Readout Kind: half-life (h)
Hi! Could you send only the number? It should be in h, unit omitted.

half-life for CCCC(CCC)C(=O)O is 1.71

----------
- Experimental Details: Pharmacokinetics of VPA from DBS drug levels after intravenous bolus in rats
- Type: in vivo
- Recorded Conditions: both sexes, Sprague-Dawley, rat, dried blood spots (whole blood), all rats (male and female pooled), iv bolus 200 mg/kg, mean ± SD, read-out: Clearance (CL) (converted)
Readout Kind: clearance (mL/min)
Hi! Could you send only the number? It should be in mL/min, unit omitted.

clearance for CCCC(CCC)C(=O)O is 5.33

----------
- Experimental Details: Pharmacokinetics of VPA from DBS drug levels after intravenous bolus in rats
- Type: in vivo
- Recorded Conditions: Sprague-Dawley, rat, dried blood spots (whole blood), female rats, iv bolus 200 mg/kg, mean ± SD, read-out: HL Lambda Z (terminal elimination half-life) (converted)
- Protocol: Sprague-Dawley rats (7–8 weeks old, males: 10, females: 10) were obtained from the Comparative Medicine Center (CMC) of NUS. […] At 9 am on the study day, five rats from each gender were administered VPA intravenously at a dose of 200 mg/kg body weight (treatment group). […] One DBS was used for metabolomic analysis and the other one was used for drug level quantification. […]
Readout Kind: half-life (h)
Hi! Could you send only the number? It should be in h, unit omitted.

half-life for CCCC(CCC)C(=O)O is 2.01

----------
- Experimental Details: Pharmacokinetics of VPA from DBS drug levels after intravenous bolus in rats
- Format: in vivo
- Recorded Conditions: Sprague-Dawley, rat, dried blood spots (whole blood), female rats, iv bolus 200 mg/kg, mean ± SD, read-out: Area under the curve (AUC0–8 h)
Readout Kind: AUC(0-t) (µg·h/mL)
Hi! Could you send only the number? It should be in µg·h/mL, unit omitted.

AUC(0-t) for CCCC(CCC)C(=O)O [VPA, 2-propyl-pentanoic acid] is 363

----------
- Experimental Details: Pharmacokinetics of VPA from DBS drug levels after intravenous bolus in rats
- Assay type: in vivo
- Recorded Conditions: Sprague-Dawley, rat, dried blood spots (whole blood), female rats, iv bolus 200 mg/kg, mean ± SD, read-out: Volume of distribution (Vd)
Readout Kind: Vd (L)
Hi! Could you send only the number? It should be in L, unit omitted.

Vd for CCCC(CCC)C(=O)O [VPA, 2-propyl-pentanoic acid] is 0.21

----------
- Experimental Details: Pharmacokinetics of VPA from DBS drug levels after intravenous bolus in rats
- Assay type: in vivo
- Recorded Conditions: both sexes, Sprague-Dawley, rat, dried blood spots (whole blood), all rats (male and female pooled), iv bolus 200 mg/kg, mean ± SD, read-out: HL Lambda Z (terminal elimination half-life) (converted)
Readout Kind: half-life (h)
Hi! Could you send only the number? It should be in h, unit omitted.

half-life for CCCC(CCC)C(=O)O is 1.86

----------
- Experimental Details: Pharmacokinetics of VPA from DBS drug levels after intravenous bolus in rats
- Assay type: in vivo
- Recorded Conditions: both sexes, Sprague-Dawley, rat, dried blood spots (whole blood), all rats (male and female pooled), iv bolus 200 mg/kg, mean ± SD, read-out: Area under the curve (AUC0–8 h)
Readout Kind: AUC(0-t)
Kindly format the answer as number then unit.

AUC(0-t) for CCCC(CCC)C(=O)O is 245 µg·h/mL

----------
- Experimental Details: Pharmacokinetics of VPA from DBS drug levels after intravenous bolus in rats
- Type: in vivo
- Recorded Conditions: Sprague-Dawley, rat, dried blood spots (whole blood), male rats, iv bolus 200 mg/kg, mean ± SD, read-out: Volume of distribution (Vd)
Readout Kind: Vd (L)
Hi! Could you send only the number? It should be in L, unit omitted.

Vd for CCCC(CCC)C(=O)O is 0.82

----------
- Experimental Details: Pharmacokinetics of VPA from DBS drug levels after intravenous bolus in rats
- Assay type: in vivo
- Recorded Conditions: Sprague-Dawley, rat, dried blood spots (whole blood), male rats, iv bolus 200 mg/kg, mean ± SD, read-out: Mean residence time (MRT)
Readout Kind: MRT (h)
Hi! Could you send only the number? It should be in h, unit omitted.

MRT for CCCC(CCC)C(=O)O is 1.14

----------
- Experimental Details: Pharmacokinetics of VPA from DBS drug levels after intravenous bolus in rats
- Format: in vivo
- Recorded Conditions: Sprague-Dawley, rat, dried blood spots (whole blood), male rats, iv bolus 200 mg/kg, mean ± SD, read-out: Area under the curve (AUC0–8 h)
Readout Kind: AUC(0-t) (µg·h/mL)
Hi! Could you send only the number? It should be in µg·h/mL, unit omitted.

AUC(0-t) for CCCC(CCC)C(=O)O [VPA, 2-propyl-pentanoic acid] is 126

----------
- Experimental Details: Pharmacokinetics of VPA from DBS drug levels after intravenous bolus in rats
- Format: in vivo
- Recorded Conditions: Sprague-Dawley, rat, dried blood spots (whole blood), female rats, iv bolus 200 mg/kg, mean ± SD, read-out: Clearance (CL) (converted)
Readout Kind: clearance (mL/min)
Hi! Could you send only the number? It should be in mL/min, unit omitted.

clearance for CCCC(CCC)C(=O)O is 2
